Reference source: patent US20080152640A1

System: human fibroblasts
ASSAY_INFO: Hyaluronan production of human fibroblasts (ELISA of culture medium)
Assay type: cell-based
MEASUREMENT_CONDITIONS: Fibroblast; human fibroblasts, culture medium; read-out: HA production (IC50)
ENDPOINT_LABEL: pIC50
Value format note: pIC50 is -log10 of concentration (mol/L); just state the number.

Example cases with answers are listed next.
IN: I have this compound here, COc1cc2c(cc1OC)-c1c/c(=N\c3c(C)cc(C)cc3C)n(C)c(=O)n1CC2 , and I need its recorded pIC50.
OUT: 5.22

IN: I have this compound here, COc1ccc2c(c1)c(CC(=O)O)c(C)n2C(=O)c1ccc(Cl)cc1 , and I need its recorded pIC50.
OUT: 4.30

IN: I have this compound here, CCCCCCCCCCSC[C@H](NC(=O)CC[C@H](N)C(=O)O)C(=O)NCC(=O)O , and I need its recorded pIC50.
OUT: 5.15

Now consider the entry below.
IN: I have this compound here, CCCN(CCC)S(=O)(=O)c1ccc(C(=O)O)cc1 , and I need its recorded pIC50.
OUT: 3.70
